- system_name: Yp Dxr (Yersinia pestis)
- Sequence (Q8ZH62 whole entry, looked up): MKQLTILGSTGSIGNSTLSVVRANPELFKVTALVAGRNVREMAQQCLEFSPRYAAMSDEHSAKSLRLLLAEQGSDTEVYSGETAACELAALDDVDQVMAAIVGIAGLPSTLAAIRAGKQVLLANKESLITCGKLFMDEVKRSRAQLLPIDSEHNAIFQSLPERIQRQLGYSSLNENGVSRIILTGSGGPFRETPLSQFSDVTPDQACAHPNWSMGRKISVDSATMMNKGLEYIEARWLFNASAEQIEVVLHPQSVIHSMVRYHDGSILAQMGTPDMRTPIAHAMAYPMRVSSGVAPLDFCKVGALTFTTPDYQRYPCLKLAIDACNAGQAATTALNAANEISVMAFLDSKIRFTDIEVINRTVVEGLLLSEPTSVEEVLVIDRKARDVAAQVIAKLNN
- Format: biochemical
observed_property: percent remaining enzyme activity at 100 µM (Yp Dxr)

>>> result("CC(=O)N(CCCP(=O)([O-])O)OC(C)c1ccccc1.[Na+] (centres unmarked) [Compound 16e]")
"(19) percent"
>>> result("CC(=O)N(CCCP(=O)([O-])O)OCc1ccc(-c2ccc(C(F)(F)F)cc2)cc1.[Na+] [Compound 16r]")
"(19) percent"

* * *

Listed compounds paired with reported M. tuberculosis MIC
- Tested on: M. tuberculosis H37Rv
- experiment_notes: microbe, parasite or virus in culture
- Format: cell-based, Mycobacterium tuberculosis
observed_property: M. tuberculosis MIC

>>> result("CC(=O)N(O)CCCP(=O)(O)O")
">500 µg/mL"
>>> result("CC(=O)N(CCCP(=O)([O-])O)OCc1ccc2ccccc2c1.[Na+] [Compound 16j]")
"≥200 µg/mL"
>>> result("CC(=O)N(CCCP(=O)([O-])O)OCCCCc1ccccc1.[Na+] [Compound 16h]")
"≥200 µg/mL"
>>> result("CC(=O)N(CCCP(=O)(OCOC(=O)C(C)(C)C)OCOC(=O)C(C)(C)C)OCc1ccc2ccccc2c1")
"18.75 (4.7) µg/mL"
>>> result("CC(=O)N(CCCP(=O)(OCOC(=O)C(C)(C)C)OCOC(=O)C(C)(C)C)OCc1ccc(-c2ccccc2)cc1")
"12.5 (3.13–6.25) µg/mL"

This collection of values is drawn from paper PMC5266543.
